Reference source for all entries: paper PMC6747088

MEASURED_TARGET: NOD2 (Homo sapiens)
Construct: THP-1 cells also express high levels of native functional NOD1 and NOD2 and respond to NOD stimulation by IL-8 secretion; endogenous in cells
Sequence (Q9HC29 whole entry): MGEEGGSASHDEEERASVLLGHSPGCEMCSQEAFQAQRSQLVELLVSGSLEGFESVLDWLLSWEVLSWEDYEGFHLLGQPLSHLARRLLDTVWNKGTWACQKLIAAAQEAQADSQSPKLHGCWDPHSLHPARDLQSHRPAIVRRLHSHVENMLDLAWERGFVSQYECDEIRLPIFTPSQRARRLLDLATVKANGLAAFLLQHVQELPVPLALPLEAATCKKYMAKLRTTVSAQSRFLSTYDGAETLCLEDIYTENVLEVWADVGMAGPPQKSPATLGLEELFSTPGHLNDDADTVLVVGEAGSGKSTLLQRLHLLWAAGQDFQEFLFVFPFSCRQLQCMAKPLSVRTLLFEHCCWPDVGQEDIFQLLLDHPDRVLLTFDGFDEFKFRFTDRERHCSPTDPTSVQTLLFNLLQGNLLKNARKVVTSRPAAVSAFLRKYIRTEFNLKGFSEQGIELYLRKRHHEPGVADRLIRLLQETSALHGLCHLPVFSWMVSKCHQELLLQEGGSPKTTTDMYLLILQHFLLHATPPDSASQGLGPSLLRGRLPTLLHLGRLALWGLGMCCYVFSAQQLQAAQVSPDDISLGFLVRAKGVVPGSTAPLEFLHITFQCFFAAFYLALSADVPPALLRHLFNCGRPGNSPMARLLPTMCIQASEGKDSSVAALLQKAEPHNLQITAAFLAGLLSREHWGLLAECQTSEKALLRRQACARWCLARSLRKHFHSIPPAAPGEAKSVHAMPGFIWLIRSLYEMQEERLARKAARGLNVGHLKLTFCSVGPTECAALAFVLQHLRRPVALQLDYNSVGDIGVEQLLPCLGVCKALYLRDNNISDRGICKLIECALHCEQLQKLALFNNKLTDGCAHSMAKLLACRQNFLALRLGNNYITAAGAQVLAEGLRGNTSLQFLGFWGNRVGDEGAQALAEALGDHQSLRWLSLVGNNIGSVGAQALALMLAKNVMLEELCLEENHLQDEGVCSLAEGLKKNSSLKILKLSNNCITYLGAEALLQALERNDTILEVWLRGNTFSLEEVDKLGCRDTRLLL
PROTOCOL_DESCRIPTION: MDP (NOD2 agonist)-induced IL-8 secretion from THP-1 cells
CONDITION_INFO: 1 h pretreatment, MDP 10 µM, 20 h, read-out: IC50 (NOD2), inhibition of IL-8 release
OBSERVED_PROPERTY: IC50 (µM)

COMPOUND	IC50 (µM)
CCOC(=O)c1cc2ccccc2n1S(=O)(=O)c1ccc(C)cc1 [SZA-39]	14.4

(I) O=C(Cn1c(CCNC(=O)c2ccccc2)nc2ccccc21)Nc1ccc2c(c1)CCC2 [GSK669]
(II) C/C=C/Cn1c(=O)c2[nH]c(SCCCc3ccccc3)nc2n(C)c1=O [ML146]
Request: For I and II , which recorded IC50 is lower? Record your answer as the label of the chosen record.
Result: I
